Data origin, for the record: patent US5073557A

The entries below come with measured EC50 values attached.
- Assay Target: M3 muscarinic receptor (ileum) (Cavia porcellus, UniProt H0W1Z3)
- Construct: agonist activity against muscarinic receptors in the ganglion, heart and ileum
- Sequence (H0W1Z3 1-590): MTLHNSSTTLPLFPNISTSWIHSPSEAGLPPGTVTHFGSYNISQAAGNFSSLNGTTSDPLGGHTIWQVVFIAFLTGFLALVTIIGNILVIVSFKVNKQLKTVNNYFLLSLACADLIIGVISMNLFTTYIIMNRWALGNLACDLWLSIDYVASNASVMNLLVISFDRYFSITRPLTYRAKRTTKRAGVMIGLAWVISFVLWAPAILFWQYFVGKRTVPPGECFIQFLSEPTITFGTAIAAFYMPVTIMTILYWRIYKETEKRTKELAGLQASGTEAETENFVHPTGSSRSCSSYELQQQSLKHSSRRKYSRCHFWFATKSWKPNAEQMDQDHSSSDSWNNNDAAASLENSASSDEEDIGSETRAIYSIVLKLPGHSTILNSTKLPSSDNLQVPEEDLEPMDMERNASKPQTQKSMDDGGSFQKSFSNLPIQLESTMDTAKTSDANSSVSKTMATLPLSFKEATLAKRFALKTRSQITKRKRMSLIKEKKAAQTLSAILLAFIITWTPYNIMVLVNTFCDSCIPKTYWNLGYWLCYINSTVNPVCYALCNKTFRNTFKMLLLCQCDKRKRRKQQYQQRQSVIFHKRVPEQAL
- Procedure Text: Agonist activity against muscarinic receptors in the ileum (M3 agonist activity)
Note: unit µM is implicit; provide only the numeric part.

See these solved cases before continuing.
[[record]]
compound = "Clc1cncc(C2CN3CCC2CC3)n1 (racemic) [racemate]"
assay_target = "M3 muscarinic receptor (ileum) (Cavia porcellus, UniProt H0W1Z3)"
measured_result = 0.03

[[record]]
compound = "Clc1cncc([C@@H]2CN3CCC2CC3)n1 [(S) isomer]"
assay_target = "M3 muscarinic receptor (ileum) (Cavia porcellus, UniProt H0W1Z3)"
measured_result = 0.6


Now for the compound whose EC50 we want.
Per the records, this compound ( Clc1cncc([C@H]2CN3CCC2CC3)n1 ) has EC50 equal to 0.04
